Could you please report measured IC50 for the items listed next?
# Tested on: T. cruzi intracellular amastigotes
# PROTOCOL: Image-based assay of the number of T. cruzi infected cells (intracellular amastigotes in 3T3 host cells)
# Format: cell-based, Trypanosoma cruzi
# REPORTED CONDITIONS: Trypanosoma cruzi; 48 hours incubation; highest test concentration 183 μM; read-out: T. cruzi 48 IC50 value
Report the figure in µM without appending any unit label.

Data request: Query: IC50; subject: "C#Cc1cn([C@H]2C[C@H](O)[C@@H](CO)O2)c(=O)[nH]c1=O"
Data returned: 0.04

Data request: Query: IC50; subject: "C#Cc1cn([C@H]2C[C@H](O)[C@@H](CO)O2)c(=O)nc1N"
Data returned: 7.1

Data request: Query: IC50; subject: CC1CS(=O)(=O)CCN1/N=C/c1ccc([N+](=O)[O-])o1 (stereo not shown)
Data returned: 0.97

Data request: Query: IC50; subject: "COc1ccc(C[C@H](N)C(=O)N[C@H]2[C@@H](O)[C@H](n3cnc4c(N(C)C)ncnc43)O[C@@H]2CO)cc1"
Data returned: 2.36
